TBIL: recorded values
Organism: Rattus norvegicus
PROTOCOL_DESCRIPTION: Open TG-GATES - Regimen: Daily Repeat
Type: toxicity, organism-based, Sprague-Dawley
Set-up: regimen Daily Repeat, gender Male, age 6 weeks
PARTICULARS: in vivo, po, 0 mg/kg, […], tissue Plasma, route gavage, dose level Control, time 14 day

// worked examples, TBIL included
INSERT INTO measurements (molecule, outcome_measure, result) VALUES
  ('CN(C)CCN(Cc1cccs1)c1ccccn1', 'TBIL', '0.008 mg/dL'),
  ('CC(C)OC(=O)C(C)(C)Oc1ccc(C(=O)c2ccc(Cl)cc2)cc1 [FENOFIBRATE]', 'TBIL', '0.038 mg/dL'),
  ('CCCNC(=O)NS(=O)(=O)c1ccc(Cl)cc1 [CHLORPROPAMIDE]', 'TBIL', '0.032 mg/dL');

Now consider a different molecule.
Dear colleague, I am looking for the recorded TBIL of the following molecule: CCOC(=O)CCC(=O)O[C@H]1[C@H](O[C@@H]2[C@@H](C)[C@H](O[C@H]3C[C@@](C)(OC)[C@@H](O)[C@H](C)O3)[C@@H](C)C(=O)O[C@H](CC)[C@@](C)(O)[C@H](O)[C@@H](C)C(=O)[C@H](C)C[C@@]2(C)O)O[C@H](C)C[C@@H]1N(C)C [ERYTHROMYCIN ETHYLSUCCINATE]
0 mg/dL
